These entries and their values trace back to patent US20240208992A1.

Biological target: human F508del-CFTR (Homo sapiens, UniProt P13569, DEL508-508)
Sequence (P13569 with tags, fused parts or gaps DEL508-508): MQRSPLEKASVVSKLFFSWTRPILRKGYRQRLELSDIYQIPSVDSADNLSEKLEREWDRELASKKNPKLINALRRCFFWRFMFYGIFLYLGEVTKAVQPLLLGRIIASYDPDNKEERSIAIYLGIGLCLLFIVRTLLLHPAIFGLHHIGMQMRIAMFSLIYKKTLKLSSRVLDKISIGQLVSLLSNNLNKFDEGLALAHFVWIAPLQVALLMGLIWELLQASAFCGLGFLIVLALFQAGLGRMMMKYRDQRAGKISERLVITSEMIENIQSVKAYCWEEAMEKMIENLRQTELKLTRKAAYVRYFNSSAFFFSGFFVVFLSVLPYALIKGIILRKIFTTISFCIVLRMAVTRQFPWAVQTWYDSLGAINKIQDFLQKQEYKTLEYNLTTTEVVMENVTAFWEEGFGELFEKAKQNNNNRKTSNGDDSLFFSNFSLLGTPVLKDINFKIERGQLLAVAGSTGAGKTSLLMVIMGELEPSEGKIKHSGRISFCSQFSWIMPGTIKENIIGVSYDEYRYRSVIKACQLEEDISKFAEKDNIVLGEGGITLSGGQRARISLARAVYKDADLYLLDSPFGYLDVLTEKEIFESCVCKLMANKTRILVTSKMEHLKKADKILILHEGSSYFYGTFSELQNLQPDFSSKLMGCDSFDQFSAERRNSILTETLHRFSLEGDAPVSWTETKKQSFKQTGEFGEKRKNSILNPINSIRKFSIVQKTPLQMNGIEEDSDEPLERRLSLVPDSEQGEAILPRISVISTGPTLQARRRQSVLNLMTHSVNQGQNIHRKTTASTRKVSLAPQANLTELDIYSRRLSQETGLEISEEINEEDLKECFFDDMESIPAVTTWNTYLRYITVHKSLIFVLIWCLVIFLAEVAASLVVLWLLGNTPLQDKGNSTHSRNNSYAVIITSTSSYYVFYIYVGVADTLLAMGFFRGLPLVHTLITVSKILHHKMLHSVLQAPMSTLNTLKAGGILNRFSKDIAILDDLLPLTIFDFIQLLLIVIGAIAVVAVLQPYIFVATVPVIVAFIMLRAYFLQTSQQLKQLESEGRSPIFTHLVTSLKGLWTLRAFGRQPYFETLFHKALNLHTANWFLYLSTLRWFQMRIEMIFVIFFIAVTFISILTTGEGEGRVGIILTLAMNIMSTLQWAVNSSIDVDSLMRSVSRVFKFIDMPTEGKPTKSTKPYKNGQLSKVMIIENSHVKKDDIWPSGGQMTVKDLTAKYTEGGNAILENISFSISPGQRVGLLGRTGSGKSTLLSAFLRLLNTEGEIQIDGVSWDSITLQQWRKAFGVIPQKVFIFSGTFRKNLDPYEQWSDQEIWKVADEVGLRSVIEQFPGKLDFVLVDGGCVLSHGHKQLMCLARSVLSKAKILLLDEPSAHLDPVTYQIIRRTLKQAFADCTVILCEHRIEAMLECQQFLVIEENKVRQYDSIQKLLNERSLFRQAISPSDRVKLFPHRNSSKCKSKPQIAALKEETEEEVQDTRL
Assay: F508del-CFTR cell surface expression (corrector activity), DiscoveRx ß-galactosidase complementation chemiluminescence assay in recombinant U2OS cell line
Details: U2OS, in relation to the Emax of the corrector lumacaftor (=100%); U2OS cells, 16h compound incubation; arithmetic mean
I'd be grateful if you could share measured Emax for these entries.
Numbers only, in %.

Some solved cases for reference:
[
  {
    "compound smiles": "COc1nccc2c1C(=O)N[C@H](C(=O)NCCn1nnc(C3CC3)n1)CC(=O)N(C)[C@@H](CC(C)C)C(=O)N1CCCC[C@@H]1C(=O)N[C@H](Cc1ccccc1)CO2",
    "value type": "Emax",
    "endpoint unit": "%",
    "test value": 411
  },
  {
    "compound smiles": "CCOCC[C@@H]1C(=O)N[C@H](Cc2ccccc2)COc2ccc3cnc(C)cc3c2C(=O)N[C@H](C(=O)NCCn2nnc(C3CC3)n2)CC(=O)N(C)[C@@H](CC(C)C)C(=O)N1C",
    "value type": "Emax",
    "endpoint unit": "%",
    "test value": 361
  },
  {
    "compound smiles": "COc1noc(CCNC(=O)[C@@H]2CC(=O)N(C)[C@@H](CC(C)C)C(=O)N(C)[C@H](CC(F)(F)F)C(=O)N[C@H](Cc3ccccc3)COc3cc(C)nc(OC)c3C(=O)N2)n1",
    "value type": "Emax",
    "endpoint unit": "%",
    "test value": 460
  },
  {
    "compound smiles": "COc1noc(CCNC(=O)[C@@H]2CC(=O)N(C)[C@@H](CC(C)C)C(=O)N(C)[C@H](Cc3nc(-c4ccc(F)cn4)no3)C(=O)N[C@H](Cc3ccccc3)COc3ccc4cnc(C)cc4c3C(=O)N2)n1",
    "value type": "Emax",
    "endpoint unit": "%",
    "test value": 398
  }
]

Please find the next compound below.
Kindly note: human F508del-CFTR (Homo sapiens, UniProt P13569, DEL508-508), CCOCC[C@@H]1C(=O)N[C@H](Cc2ccccc2)COc2ccc3ncc(F)cc3c2C(=O)N[C@H](C(=O)NCCc2nc(OC)no2)CC(=O)N(C)[C@@H](CC(C)C)C(=O)N1C , Emax value reported: 513

----------
Molecular target: human F508del-CFTR (Homo sapiens, UniProt P13569, DEL508-508)
Assay: F508del-CFTR cell surface expression (corrector activity), DiscoveRx ß-galactosidase complementation chemiluminescence assay in recombinant U2OS cell line
Conditions: U2OS, in relation to Emax of corrector lumacaftor (=100%); arithmetic mean values
// returns Not fulfilled unless Emax is strictly below 200%, in which case Fulfilled

Known results for compounds:
[
  {
    "compound": "CC(C)C[C@H]1C(=O)N2CC[C@H](c3ccccc3)C[C@H]2C(=O)N[C@H](Cc2ccccc2)COc2cnc3ccccc3c2C(=O)N[C@H](C(=O)NCCc2cc(C3CC3)no2)CC(=O)N1C (single isomer, unassigned)",
    "assigned class": "Fulfilled"
  },
  {
    "compound": "COc1nccc2c1C(=O)N[C@H](C(=O)NCCc1cc(C)no1)CC(=O)N(C)[C@@H](CC(C)C)C(=O)N1CCN(CC(C)C)C[C@@H]1C(=O)N[C@H](Cc1ccccc1)CO2",
    "assigned class": "Not fulfilled"
  },
  {
    "compound": "COc1cccc(CCNC(=O)[C@@H]2CC(=O)N(C)[C@@H](CC(C)C)C(=O)N3CCN(C(C)C)C[C@@H]3C(=O)N[C@H](Cc3ccccc3)COc3cccc(OC)c3C(=O)N2)c1",
    "assigned class": "Not fulfilled"
  }
]

[Q] Here's an entry: CCOc1cccc(CCNC(=O)[C@@H]2CC(=O)N(C)[C@@H](CC(C)C)C(=O)N3CCN(CC4CC4)C[C@@H]3C(=O)N[C@H](Cc3ccccc3)COc3ccc4nc(C)oc4c3C(=O)N2)c1 . Is its Emax below 200%?
[A] Not fulfilled

[Q] Bench note: check whether CC(C)C[C@H]1C(=O)N(C)[C@@H](CC2CCCC2)C(=O)N[C@H](Cc2ccccc2)COc2cnc3ccc(F)cc3c2C(=O)N[C@H](C(=O)NCCc2noc(C3CC3)n2)CC(=O)N1C shows Emax below 200%
[A] Not fulfilled

[Q] Please let me know if CC(C)C[C@H]1C(=O)N2CC[C@@H](c3ccccc3)C[C@H]2C(=O)N[C@H](Cc2ccccc2)COc2cnc3ccccc3c2C(=O)N[C@H](C(=O)NCCc2cc(C3CC3)no2)CC(=O)N1C shows Emax below 200%.
[A] Fulfilled

[Q] Dear colleague, could you confirm whether Emax of Cc1cc(CCNC(=O)[C@@H]2CC(=O)N(C)[C@@H](CC(C)C)C(=O)N(CCC3CCCCC3)CC(=O)N[C@H](Cc3ccccc3)COc3ccc4nc(C)oc4c3C(=O)N2)on1 falls below 200%? Thanks.
[A] Not fulfilled

[Q] Does the reported Emax of COc1cccc(CCNC(=O)[C@@H]2CC(=O)N(C)[C@@H](CC(C)C)C(=O)N(C)C(C)(C)C(=O)N[C@H](Cc3ccccc3)COc3cnc4ccccc4c3C(=O)N2)c1 stay below 200%?
[A] Fulfilled

[Q] Please indicate whether the reported Emax of CC(C)C[C@H]1C(=O)N(C)CC(=O)N[C@H](Cc2ccccc2)COc2cccc(OC(F)F)c2C(=O)N[C@H](C(=O)NCCc2ccc3c(c2)OCO3)CC(=O)N1C is strictly below 200%.
[A] Fulfilled

----------
Molecular target: human F508del-CFTR (Homo sapiens, UniProt P13569, DEL508-508)
Experiment: F508del-CFTR cell surface expression (corrector activity), DiscoveRx ß-galactosidase complementation chemiluminescence assay in recombinant U2OS cell line
Conditions: U2OS, in relation to Emax of corrector lumacaftor (=100%); arithmetic mean values
Can you tell me Emax for the items I'm about to list?
Answers are plain numbers, in %.

Check out these entries, answers already filled in.
[
  {
    "compound": "[2H]C1([2H])Oc2ccc3c(c2O1)C(=O)N[C@H](C(=O)NCCc1ccc(-n2nccn2)cc1)CC(=O)N(C)[C@@H](CC(C)C)C(=O)N1CCCC[C@@H]1C(=O)N[C@H](Cc1ccccc1)CO3",
    "Emax / %": 140
  },
  {
    "compound": "COCCCN1C(=O)[C@H](CC(C)C)N(C)C(=O)C[C@@H](C(=O)NCCc2cccc(OC)c2)NC(=O)c2c(ccc3ccccc23)OC[C@@H](Cc2ccccc2)NC(=O)[C@H]1C",
    "Emax / %": 281
  },
  {
    "compound": "COc1nccc2c1C(=O)N[C@H](C(=O)NCCc1cc(C3CC3)on1)CC(=O)N(C)[C@@H](CC(C)C)C(=O)N(C)[C@H](CC1CCC(F)(F)CC1)C(=O)N[C@H](Cc1ccccc1)CO2",
    "Emax / %": 351
  },
  {
    "compound": "Cc1cc(CCNC(=O)[C@@H]2CC(=O)N(C)[C@@H](CC(C)C)C(=O)N(CC3Cc4ccccc4O3)CC(=O)N[C@H](Cc3ccccc3)COc3cnc4ccccc4c3C(=O)N2)on1 (some centres unmarked)",
    "Emax / %": 162
  }
]

Now for a further compound.
# compound Cc1cc(CCNC(=O)[C@@H]2CC(=O)N(C)[C@@H](CC(C)C)C(=O)N3CCCC[C@@H]3C(=O)N[C@H](Cc3ccccc3)COc3ccc4nc(C)oc4c3C(=O)N2)on1 ; its Emax = 326

----------
Molecular target: human F508del-CFTR (Homo sapiens, UniProt P13569, DEL508-508)
Assay: F508del-CFTR cell surface expression (corrector activity), DiscoveRx ß-galactosidase complementation chemiluminescence assay in recombinant U2OS cell line;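 note: U2OS cells co-expressing ProLink-tagged F508del-CFTR and a membrane-anchored enzyme acceptor, where more surface CFTR restores β-galactosidase activity measured by chemiluminescence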
Conditions: in relation to the Emax of the corrector lumacaftor (=100%); U2OS cell line, 16h compound incubation; arithmetic mean values
value type: Emax (%)
One number for each entry, in %.

[
  {
    "compound": "CC(C)C[C@H]1C(=O)N2CCCC[C@@H]2C(=O)N[C@H](Cc2ccccc2)COc2cnc3ccccc3c2C(=O)N[C@H](C(=O)NCCc2cc(C(C)(C)C)on2)CC(=O)N1C [Example 90]",
    "test value": 129
  },
  {
    "compound": "COc1cccc(CCNC(=O)[C@@H]2CC(=O)N(C)[C@@H](CC3CCCC3)C(=O)N(C[C@@H]3CCCCO3)CC(=O)N[C@H](Cc3ccccc3)COc3ccc4ccccc4c3C(=O)N2)c1 (racemic) [Example 295]",
    "test value": 174
  },
  {
    "compound": "CC(C)C[C@H]1C(=O)N2CCCC[C@@H]2C(=O)N[C@H](Cc2ccccc2)COc2cnc3ccccc3c2C(=O)N[C@H](C(=O)NCCc2cc(C(C)(C)C)on2)CC(=O)N1C [Example 89]",
    "test value": 262
  }
]

We next turn to a different compound, shown below.
Noted for COc1cccc(CCNC(=O)[C@@H]2CC(=O)N(C)[C@@H](CC3CCCC3)C(=O)N(C[C@@H]3CCCCO3)CC(=O)N[C@H](Cc3ccccc3)COc3ccc4ccccc4c3C(=O)N2)c1 (racemic) [Example 293] : its Emax reads 137
